Each entry below lists one item and its recorded self-splicing fitness (ln) value.
# assay summary: self-splicing fitness, log relative to wild type (ln ratio); higher = more splicing; Tetrahymena group I intron in knt gene, E. coli kanamycin selection, DiMSum; sequences stand for … in CUCUCU…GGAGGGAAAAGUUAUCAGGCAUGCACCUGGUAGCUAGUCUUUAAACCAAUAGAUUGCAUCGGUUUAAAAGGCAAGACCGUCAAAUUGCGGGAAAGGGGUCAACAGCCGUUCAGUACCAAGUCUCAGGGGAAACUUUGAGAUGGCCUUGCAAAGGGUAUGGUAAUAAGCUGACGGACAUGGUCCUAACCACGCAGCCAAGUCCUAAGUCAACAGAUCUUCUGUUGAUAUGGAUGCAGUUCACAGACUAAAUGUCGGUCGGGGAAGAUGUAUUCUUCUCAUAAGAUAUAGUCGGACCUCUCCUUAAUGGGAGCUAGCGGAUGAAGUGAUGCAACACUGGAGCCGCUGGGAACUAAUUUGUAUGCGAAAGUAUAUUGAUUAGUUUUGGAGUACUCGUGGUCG;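 also: selection with 25 µg/mL kanamycin versus none on LB agar overnight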
# condition parameters: 37 °C
I'd appreciate a reply containing only the number, no unit.

chain: GAACAGCAAUAUUACGGUGU
self-splicing fitness (ln): -0.373

chain: CCAAAGCAAUAUUACGGCGC
self-splicing fitness (ln): -2.49

chain: UUAAAGCAAUAUUACGAGUA
self-splicing fitness (ln): -0.715

chain: CCGUAGCAAUAUUACGUUGG
self-splicing fitness (ln): -3.1

Requested read-out: self-splicing fitness (ln). Entry: "UAGCAGCAAUAUUACGUGCG" 0.26

Requested read-out: self-splicing fitness (ln). Entry: "AACAAGCAAUAUUACGAUAC" -1.71

Requested read-out: self-splicing fitness (ln). Entry: "GUGUAGCAAUAUUACGGCCG" -0.71

Requested read-out: self-splicing fitness (ln). Entry: "AGAAAGCAAUAUUACGGAAU" -1.74

Requested read-out: self-splicing fitness (ln). Entry: "AAAAAGCAAUAUUACGCGCC" -0.59

Requested read-out: self-splicing fitness (ln). Entry: "GAGGAGCAAUAUUACGCCAU" -2.37

Requested read-out: self-splicing fitness (ln). Entry: "GCUCAGCAAUAUUACGGGAA" 0.252

Requested read-out: self-splicing fitness (ln). Entry: "GGUCAGCAAUAUUACGCUUG" -0.556

Requested read-out: self-splicing fitness (ln). Entry: "UCAAAGCAAUAUUACGUUGG" -3

Requested read-out: self-splicing fitness (ln). Entry: "ACUCAGCAAUAUUACGUGUC" -2.21

Requested read-out: self-splicing fitness (ln). Entry: "AAGUAGCAAUAUUACGCACA" -0.00649

Requested read-out: self-splicing fitness (ln). Entry: "ACCGAGCAAUAUUACGAAAG" -1.68

---

# assay summary: self-splicing fitness, log relative to wild type (ln ratio); higher = more splicing; Tetrahymena group I intron in knt gene, E. coli kanamycin selection, DiMSum; sequences stand for … in CUCUCU…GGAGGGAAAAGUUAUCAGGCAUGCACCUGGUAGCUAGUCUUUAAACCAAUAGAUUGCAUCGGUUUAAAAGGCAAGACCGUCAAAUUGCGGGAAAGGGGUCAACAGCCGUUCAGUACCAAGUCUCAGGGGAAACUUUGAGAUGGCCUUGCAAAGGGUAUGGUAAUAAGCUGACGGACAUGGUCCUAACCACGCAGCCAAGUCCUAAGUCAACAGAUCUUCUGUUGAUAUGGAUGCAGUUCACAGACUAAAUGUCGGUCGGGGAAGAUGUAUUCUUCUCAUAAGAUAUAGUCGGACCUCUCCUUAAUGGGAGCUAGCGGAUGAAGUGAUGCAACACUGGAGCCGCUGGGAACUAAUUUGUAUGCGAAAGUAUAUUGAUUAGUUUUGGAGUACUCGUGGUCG
# condition parameters: 30 °C
reported endpoint: self-splicing fitness (ln)
I'd appreciate a reply containing only the number, no unit.

Some solved cases for reference:
chain: AGAUAGCAAUAUUACGGGAG
self-splicing fitness (ln): -2.43
//
chain: GCCGAGCAAUAUUACGUGCC
self-splicing fitness (ln): -3.35
//
chain: AAGGAGCAAUAUUACGUCGA
self-splicing fitness (ln): -1.74
//
chain: GAGUAGCAAUAUUACGGCCG
self-splicing fitness (ln): -1.24
//
chain: CUACAGCAAUAUUACGAAUC
self-splicing fitness (ln): -4.32
//
chain: AUCCAGCAAUAUUACGGGUC
self-splicing fitness (ln): -3.06
//
chain: UUGGAGCAAUAUUACGACGU
self-splicing fitness (ln): -1.85
//
chain: UACGAGCAAUAUUACGCUUA
self-splicing fitness (ln): -1.96
//
chain: UGCCAGCAAUAUUACGAUGU
self-splicing fitness (ln): -4.66
//
chain: GAGCAGCAAUAUUACGACAA
self-splicing fitness (ln): -1.41

Requested read-out: self-splicing fitness (ln). Entry: "CCACAGCAAUAUUACGUCUU" -3.88

Requested read-out: self-splicing fitness (ln). Entry: "GCGAAGCAAUAUUACGGAUA" -1.76

Requested read-out: self-splicing fitness (ln). Entry: "ACCUAGCAAUAUUACGUCUU" -0.806

FYI, the data here is from the supplement of paper PMC7877785.
